Below: a set of entries, each annotated with reported remaining at 0.5 h, 1 µM.
# protocolDescription: Metabolic stability in human liver microsomes at 1 uM after 30 mins by LC-MS/MS method
# Type: ADME
# particulars: read-out: Stability

| smiles | remaining at 0.5 h, 1 µM [%] |
| --- | --- |
| CCCc1nc2c(C)cc(-c3nc4ccccc4n3C)cc2n1Cc1ccc(-c2ccccc2C(=O)O)cc1 | 97.7 |
| Fc1ccc(C(c2ccc(F)cc2)N2CCN(C/C=C/c3ccccc3)CC2)cc1 | 83.8 |

----------
# maps each entry to its IC50
# testedSystem: Cytochrome P450 2J2 (Homo sapiens)
# Sequence (P51589 whole entry): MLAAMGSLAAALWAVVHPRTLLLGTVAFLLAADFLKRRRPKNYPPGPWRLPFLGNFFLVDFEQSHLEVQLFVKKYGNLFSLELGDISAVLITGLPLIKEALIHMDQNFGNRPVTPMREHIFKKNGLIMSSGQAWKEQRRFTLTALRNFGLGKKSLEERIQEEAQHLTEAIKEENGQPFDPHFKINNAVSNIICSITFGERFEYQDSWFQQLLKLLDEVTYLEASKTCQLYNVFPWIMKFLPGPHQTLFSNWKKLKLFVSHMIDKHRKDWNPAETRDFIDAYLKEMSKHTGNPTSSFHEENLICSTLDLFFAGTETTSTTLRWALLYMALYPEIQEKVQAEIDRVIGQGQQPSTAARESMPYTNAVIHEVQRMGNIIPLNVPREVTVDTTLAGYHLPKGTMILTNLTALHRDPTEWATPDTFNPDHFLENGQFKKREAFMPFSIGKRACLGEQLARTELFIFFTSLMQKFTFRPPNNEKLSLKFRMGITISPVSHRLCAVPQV

| compound | IC50 |
| --- | --- |
| C=CCc1ccccc1OCC(O)CNC(C)C (centres undefined) [ALPRENOLOL] | > 50 µM |
| CCCc1nc(C(C)(C)O)c(C(=O)O)n1Cc1ccc(-c2ccccc2-c2nnn[nH]2)cc1 [OLMESARTAN] | > 50 µM |
| Cc1c(OCC(F)(F)F)ccnc1C[S+]([O-])c1nc2ccccc2[nH]1 (centres undefined) [LANSOPRAZOLE] | > 50 µM |
| CO/N=C(\C(=O)N[C@@H]1C(=O)N2C(C(=O)O)=C(CSc3nc(=O)c(=O)[nH]n3C)CS[C@H]12)c1csc(N)n1 [CEFTRIAXONE] | 27.4 µM |
| CN1CCC[C@@H]1Cc1c[nH]c2ccc(CCS(=O)(=O)c3ccccc3)cc12 | > 50 µM |
| COCC(=O)O[C@]1(CCN(C)CCCc2nc3ccccc3[nH]2)CCc2cc(F)ccc2[C@@H]1C(C)C [MIBEFRADIL] | 2.14 µM |
| COc1ccc2c(c1)[C@]13CCCC[C@@H]1[C@H](C2)N(C)CC3 [DEXTROMETHORPHAN] | > 50 µM |
| C[C@]12C=CC(=O)C=C1CC[C@H]1[C@@H]3C[C@@H](O)[C@](O)(C(=O)CO)[C@@]3(C)C[C@H](O)[C@@]12F [TRIAMCINOLONE] | 9.47 µM |
| CC(=O)Nc1ccc(O)cc1 [ACETAMINOPHEN] | > 50 µM |
